Listed here: items and their measured log10 of Kb.
Target: Prostaglandin E2 receptor EP1 subtype (Homo sapiens) (UniProt P34995)
Sequence (whole entry): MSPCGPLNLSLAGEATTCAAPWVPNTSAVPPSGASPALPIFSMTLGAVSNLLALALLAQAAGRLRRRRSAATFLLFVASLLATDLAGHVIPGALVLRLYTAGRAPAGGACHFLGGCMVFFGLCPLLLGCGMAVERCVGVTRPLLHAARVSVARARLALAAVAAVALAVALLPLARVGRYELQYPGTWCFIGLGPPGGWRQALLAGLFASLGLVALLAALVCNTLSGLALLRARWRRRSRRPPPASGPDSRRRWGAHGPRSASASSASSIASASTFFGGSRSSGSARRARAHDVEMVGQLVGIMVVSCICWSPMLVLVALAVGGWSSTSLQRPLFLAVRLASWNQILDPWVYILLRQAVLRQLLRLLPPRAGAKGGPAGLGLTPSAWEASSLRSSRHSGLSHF
Experiment: Inhibitory activity against Prostaglandin E receptor in functional cell based assay
Please interpret these as log10 of Kb where Kb is in nM.

Example compounds with recorded log10 of Kb:
> print(dat)
                                   compound  readout.number
1  O=C(O)Cc1cccc(-c2sccc2-c2cc(Cl)ccc2OCc2ccccc2)c1            1.82
2  O=C(O)c1cncc(-c2sccc2-c2cc(Cl)ccc2OCc2ccccc2)c1            0.60
3  O=C(O)c1cccc(-c2sccc2-c2cc(Cl)ccc2OCc2ccccc2)n1            0.00

Request the reported log10 of Kb associated with OC(O)(c1cncc(-c2sccc2-c2cc(Cl)ccc2OCc2ccccc2)c1)C(F)(F)F
1.85

Request the reported log10 of Kb associated with CC(NC(=O)c1cccc(-c2sccc2-c2cc(Cl)ccc2OCc2ccccc2)c1)c1cccnc1 (configuration not stated)
1.99

Request the reported log10 of Kb associated with NS(=O)(=O)c1cccc(-c2ccsc2-c2cc(Cl)ccc2OCc2ccccc2)c1
2.00

Request the reported log10 of Kb associated with O=C(O)c1cccc(-c2sccc2-c2cc(Cl)ccc2OCc2ccccc2)c1
0.85

###

Listed here: items and their measured pKi.
Molecular target: Prostaglandin E2 receptor EP1 subtype (Homo sapiens)
Sequence (P34995 whole entry): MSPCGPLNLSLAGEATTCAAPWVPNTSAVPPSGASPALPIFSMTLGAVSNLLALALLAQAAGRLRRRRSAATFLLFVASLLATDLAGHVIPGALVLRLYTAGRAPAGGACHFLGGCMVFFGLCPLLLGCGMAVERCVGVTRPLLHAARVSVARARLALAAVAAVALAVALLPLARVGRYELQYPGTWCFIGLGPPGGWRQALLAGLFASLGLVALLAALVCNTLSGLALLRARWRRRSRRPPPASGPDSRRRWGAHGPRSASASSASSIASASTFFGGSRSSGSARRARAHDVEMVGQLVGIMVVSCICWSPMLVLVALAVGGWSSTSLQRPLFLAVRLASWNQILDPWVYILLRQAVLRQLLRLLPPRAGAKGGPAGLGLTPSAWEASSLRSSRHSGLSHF
Assay: Binding affinity against Prostaglandin E receptor was determined in human
Please note pKi is a logarithmic value: minus log10 of concentration in mol/L. Answer with that number alone.

Example molecules with recorded pKi:
> print(dat)
                                   molecule                              study.target  readout.number
1  O=C(O)c1cccc(-c2sccc2-c2cc(Cl)ccc2OCc2ccccc2)n1  Prostaglandin E2 receptor EP1 subtype (Homo sapiens)            8.22
2  O=C(O)c1cccc(-c2sccc2-c2cc(Cl)ccc2OCc2ccccc2)c1  Prostaglandin E2 receptor EP1 subtype (Homo sapiens)            8.40
3  OC(c1cncc(-c2sccc2-c2cc(Cl)ccc2OCc2ccccc2)c1)(C(F)(F)F)C(F)(F)F  Prostaglandin E2 receptor EP1 subtype (Homo sapiens)            6.59
4  OC(O)(c1cncc(-c2sccc2-c2cc(Cl)ccc2OCc2ccccc2)c1)C(F)(F)F  Prostaglandin E2 receptor EP1 subtype (Homo sapiens)            8.40
5  O=C(O)c1cncc(-c2sccc2-c2cc(Cl)ccc2OCc2ccccc2)c1  Prostaglandin E2 receptor EP1 subtype (Homo sapiens)            8.52

Request the reported pKi associated with O=C(Cc1ccccc1)Nc1cccc(-c2sccc2-c2cc(Cl)ccc2OCc2ccccc2)c1
8.40

Request the reported pKi associated with OC(c1cncc(-c2sccc2-c2cc(Cl)ccc2OCc2ccccc2)c1)C(F)(F)F (configuration not stated)
8.52

Request the reported pKi associated with O=C(O)Cc1cccc(-c2sccc2-c2cc(Cl)ccc2OCc2ccccc2)c1
7.82

###

Target: Prostaglandin E2 receptor EP1 subtype (Homo sapiens, UniProt P34995)
Sequence (P34995 whole entry): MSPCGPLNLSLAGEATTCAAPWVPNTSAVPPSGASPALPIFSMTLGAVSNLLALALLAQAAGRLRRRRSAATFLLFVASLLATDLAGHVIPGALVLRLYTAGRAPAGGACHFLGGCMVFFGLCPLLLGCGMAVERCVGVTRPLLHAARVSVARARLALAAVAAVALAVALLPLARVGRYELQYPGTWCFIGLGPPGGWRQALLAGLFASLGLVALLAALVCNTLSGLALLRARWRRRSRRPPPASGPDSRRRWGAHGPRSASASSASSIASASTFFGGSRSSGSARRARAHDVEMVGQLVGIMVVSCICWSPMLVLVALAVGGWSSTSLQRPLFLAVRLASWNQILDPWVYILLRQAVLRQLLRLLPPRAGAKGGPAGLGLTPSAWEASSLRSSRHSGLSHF
Assay: Binding affinity against Prostaglandin E receptor in presence of 2% human serum albumin
Field: class. Source value: Ki. Ranges: low value (below 20 nM), medium value (20 nM to below 90 nM), high value (90 nM or more)

Here are 6 compounds together with their reported answers.
> print(dat)
                                   compound         label
1  OC(c1cncc(-c2sccc2-c2cc(Cl)ccc2OCc2ccccc2)c1)C(F)(F)F (stereo unspecified)     low value
2  CC(NC(=O)c1cccc(-c2sccc2-c2cc(Cl)ccc2OCc2ccccc2)c1)c1cccnc1 (stereo unspecified)     low value
3  NS(=O)(=O)c1cccc(-c2ccsc2-c2cc(Cl)ccc2OCc2ccccc2)c1     low value
4  O=C(Cc1ccccc1)Nc1cccc(-c2sccc2-c2cc(Cl)ccc2OCc2ccccc2)c1     low value
5  O=S(=O)(Cc1ccccc1)Nc1cccc(-c2sccc2-c2cc(Cl)ccc2OCc2ccccc2)c1  medium value
6  O=C(O)c1cccc(-c2sccc2-c2cc(Cl)ccc2OCc2ccccc2)c1  medium value

Into which category would you place OC(O)(c1cncc(-c2sccc2-c2cc(Cl)ccc2OCc2ccccc2)c1)C(F)(F)F ?
low value

Into which category would you place O=C(O)Cc1cccc(-c2sccc2-c2cc(Cl)ccc2OCc2ccccc2)c1 ?
high value

Into which category would you place N#CC(O)c1cncc(-c2sccc2-c2cc(Cl)ccc2OCc2ccccc2)c1 (stereo unspecified) ?
high value

Into which category would you place O=C(O)c1cccc(-c2sccc2-c2cc(Cl)ccc2OCc2ccccc2)n1 ?
high value

###

experiment: Half life of compound in rat; type: ADME; conditions: in vivo
Listed here: items and their measured half-life.
Give the quantity in h, number only.

Example molecules with recorded half-life:
> print(dat)
                                   molecule  readout.number
1  O=C(O)c1cccc(-c2sccc2-c2cc(Cl)ccc2OCc2ccccc2)n1               4
2  O=C(O)Cc1cccc(-c2sccc2-c2cc(Cl)ccc2OCc2ccccc2)c1               3
3  NS(=O)(=O)c1cccc(-c2ccsc2-c2cc(Cl)ccc2OCc2ccccc2)c1               2
4  OC(c1cncc(-c2sccc2-c2cc(Cl)ccc2OCc2ccccc2)c1)C(F)(F)F (stereo not given)               1

For the next question, use this molecule.
Request the reported half-life associated with OC(O)(c1cncc(-c2sccc2-c2cc(Cl)ccc2OCc2ccccc2)c1)C(F)(F)F
2

###

target: Prostaglandin E2 receptor EP1 subtype (Rattus norvegicus); assay: Binding affinity towards Prostaglandin E receptor was determined in rat
Sequence (P70597 whole entry): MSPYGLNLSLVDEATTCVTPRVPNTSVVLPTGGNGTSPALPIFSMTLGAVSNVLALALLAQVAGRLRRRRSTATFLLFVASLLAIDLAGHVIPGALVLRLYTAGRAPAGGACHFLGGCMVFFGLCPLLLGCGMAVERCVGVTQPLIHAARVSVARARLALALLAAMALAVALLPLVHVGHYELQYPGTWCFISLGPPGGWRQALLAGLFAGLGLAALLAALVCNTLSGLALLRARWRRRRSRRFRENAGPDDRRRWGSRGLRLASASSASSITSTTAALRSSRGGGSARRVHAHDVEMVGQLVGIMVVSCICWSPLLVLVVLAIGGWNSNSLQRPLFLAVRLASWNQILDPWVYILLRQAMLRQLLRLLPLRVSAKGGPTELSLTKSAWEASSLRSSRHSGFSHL
REPORTED_PROPERTY: Ki (nM)
Give the quantity in nM, number only.

Request the reported Ki associated with O=C(O)c1cccc(-c2sccc2-c2cc(Cl)ccc2OCc2ccccc2)n1
12

###

Protein target, amino acids: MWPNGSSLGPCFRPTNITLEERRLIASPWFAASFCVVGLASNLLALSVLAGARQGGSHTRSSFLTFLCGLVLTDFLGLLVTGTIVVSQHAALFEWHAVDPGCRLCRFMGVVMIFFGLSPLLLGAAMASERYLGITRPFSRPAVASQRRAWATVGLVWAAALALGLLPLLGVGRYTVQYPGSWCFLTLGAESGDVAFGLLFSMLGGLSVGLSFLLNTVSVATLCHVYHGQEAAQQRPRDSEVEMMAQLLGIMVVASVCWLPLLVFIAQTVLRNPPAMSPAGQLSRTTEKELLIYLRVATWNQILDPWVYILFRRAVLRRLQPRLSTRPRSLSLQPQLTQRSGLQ
REPORTED_PROPERTY: Ki (µM)
Give the quantity in µM, number only.

> print(dat)
                                   molecule  readout.number
1  OC(c1cncc(-c2sccc2-c2cc(Cl)ccc2OCc2ccccc2)c1)C(F)(F)F (stereo not given)            0.12
2  NS(=O)(=O)c1cccc(-c2ccsc2-c2cc(Cl)ccc2OCc2ccccc2)c1            0.39
3  OC(O)(c1cncc(-c2sccc2-c2cc(Cl)ccc2OCc2ccccc2)c1)C(F)(F)F            0.22

For the next question, use this molecule.
Request the reported Ki associated with O=C(O)c1cccc(-c2sccc2-c2cc(Cl)ccc2OCc2ccccc2)c1
0.1

All values here come from ChEMBL document CHEMBL1144328.
